Target: T1, human CD33 extracellular domain (human, UniProt P20138 18-259)
T1 construct: soluble monomeric ECD; also called human CD33 ECD; hCD33
Assay: SPR, Fab captured, 37C;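 further: fabs captured on an anti-Fab surface, soluble monomeric CD33 ECD flowed over at several concentrations, double-referenced curves fit to a 1:1 binding model, KD taken as koff/kon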
Property Label: koff (s⁻¹)
API: value field is a number in s⁻¹; no unit string.

### Prompt # query: koff of entry ADI-11776 Fab (Fab, V domains shown, Fab fragment; also called Ab3; H76) VH: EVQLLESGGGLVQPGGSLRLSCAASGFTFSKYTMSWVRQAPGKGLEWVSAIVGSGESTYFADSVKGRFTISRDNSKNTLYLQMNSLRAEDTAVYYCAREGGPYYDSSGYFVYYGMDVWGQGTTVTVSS VL: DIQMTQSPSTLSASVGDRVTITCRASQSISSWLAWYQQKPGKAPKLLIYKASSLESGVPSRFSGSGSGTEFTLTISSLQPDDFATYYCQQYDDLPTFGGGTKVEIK
### Response 0.00124

Cited source: patent US20220380459A1
